Where do these numbers come from? They come from patent US9169254B2.

Below, each entry is listed alongside its reported cAMP production activity (%).
# target-desc: human PTH1 receptor (Homo sapiens, UniProt Q03431)
# test-details: In vitro cAMP signal activity in HKRK-B7 cells (LLC-PK1 cells overexpressing the human PTH1 receptor)
# Assay type: cell-based
# run-conditions: HKRK-B7 cells; compound at 1×10^−3 M; cAMP produced as percentage of that produced by hPTH(1-34) at 100 nM
measurement-kind: cAMP production activity (%)

molecule	reported-value
CNc1cc(C)c(CCS(=O)(=O)N2CCC3(CC2)N=C(c2cccc(SC(F)(F)F)c2)NC3=O)c(C)c1	82
Cc1cc(N(C)C(N)=O)cc(C)c1CCS(=O)(=O)N1CCC2(CC1)N=C(C1CC(C)(C)CC(C)(C)C1)NC2=O	117
CC(=O)Nc1ccc(CCS(=O)(=O)N2CCC3(CC2)N=C(c2cccc(Cl)c2Cl)NC3=O)c(C)c1	105
Cc1cc(CC(=O)N(C)C)ccc1CCS(=O)(=O)N1CCC2(CC1)N=C(C1CCC(C)CC1)NC2=O (stereo not shown)	68
Cc1cc(C(=O)N2CCC(O)(CF)CC2)cc(C)c1/C=C/S(=O)(=O)N1CCC2(CC1)N=C(c1cccc(C(C)(F)F)c1)NC2=O	74
Cc1cc(C(=O)N2CCC(C)(O)CC2)cc(C)c1/C=C/S(=O)(=O)N1CCC2(CC1)N=C(c1ccc(F)c(OCCCF)c1)NC2=O	74
CC(=O)Nc1ccc(/C=C/S(=O)(=O)N2CCC3(CC2)N=C(C2CCC(C)CC2)NC3=O)c(OC(C)C)c1 (stereo not shown)	83

* * *

# target-desc: human PTH1 receptor (Homo sapiens)
# test-details: In vitro cAMP signal activity in HKRK-B7 cells (LLC-PK1 cells overexpressing the human PTH1 receptor)
# Format: cell-based
# run-conditions: HKRK-B7 cells; compound at 1×10^−3 M; cAMP produced as percentage of that produced by hPTH(1-34) at 100 nM
So basically, if cAMP production activity (%) comes in under 80% it's label 1, and if it's 80% or more it's label 0.

compound	label-value
Cc1cc(N2C(=O)CNC2=O)ccc1CCS(=O)(=O)N1CCC2(CC1)N=C(C1CCC(C(C)C)CC1)NC2=O (stereo not drawn)	label 1
CCCc1cc2ccc(C3=NC4(CCN([S@TB18](=O)(=O)/C=C/c5c(C)cc(N(C)C(N)=O)cc5C)CC4)C(=O)N3)cc2o1	label 0
Cc1cc(C(=O)N2CCSC2)ccc1CCS(=O)(=O)N1CCC2(CC1)N=C(c1cccc(OC(F)(F)F)c1)NC2=O	label 0
Cc1cc(N(C)C(N)=O)cc(C)c1CCS(=O)(=O)N1CCC2(CC1)N=C(C1CCC(CC=C(F)F)CC1)NC2=O (stereo not drawn)	label 0
O=C1NC(C2CCCCC2)=NC12CCN(S(=O)(=O)/C=C/c1ccc3c(ccn3C[C@H](O)CO)c1)CC2	label 0
Cc1cc(C(=O)N2CCC(C)(O)CC2)cc(C)c1/C=C/S(=O)(=O)N1CCC2(CC1)N=C(c1ccc(F)c(OCCCC(F)(F)C(F)(F)F)c1)NC2=O	label 0

* * *

# target-desc: human PTH1 receptor (Homo sapiens)
# test-details: In vitro cAMP signal activity in HKRK-B7 cells (LLC-PK1 cells overexpressing the human PTH1 receptor)
# Assay type: cell-based
# run-conditions: HKRK-B7 cells; compound at 1×10^−3 M; cAMP produced as percentage of that produced by hPTH(1-34) at 100 nM

molecule	cAMP production activity (%)
O=C1NC(C2CCCCC2)=NC12CCN(S(=O)(=O)/C=C/c1cccc3cc[nH]c13)CC2 [Compound 479]	15
Cc1cc(C(=O)N2CCC(C)(O)CC2)cc(C)c1/C=C/S(=O)(=O)N1CCC2(CC1)N=C(c1ccc(C(F)(F)F)c(OCC(F)(F)C(F)(F)F)c1)NC2=O [Compound 1228]	68
Cc1cc(N2C(=O)NC(C)(C)C2=O)ccc1/C=C/S(=O)(=O)N1CCC2(CC1)N=C(C1CCC(C)CC1)NC2=O (stereo not drawn) [Compound 511]	29
Cc1cc(OCCC(O)CO)cc(C)c1CCS(=O)(=O)N1CCC2(CC1)N=C(c1cccc(OC(F)(F)F)c1)NC2=O (stereo not drawn) [Compound 676]	69
CN(C)C(=O)CNc1ccc(/C=C/S(=O)(=O)N2CCC3(CC2)N=C(C2CCCCC2)NC3=O)c(C(F)(F)F)c1 [Compound 201]	56
CC(=O)NS(=O)(=O)c1ccc(/C=C/S(=O)(=O)N2CCC3(CC2)N=C(c2cccc(C(F)(F)F)c2)NC3=O)c(C)c1 [Compound 594]	69

* * *

# target-desc: UniProt Q03431
# Sequence (Q03431 27-593): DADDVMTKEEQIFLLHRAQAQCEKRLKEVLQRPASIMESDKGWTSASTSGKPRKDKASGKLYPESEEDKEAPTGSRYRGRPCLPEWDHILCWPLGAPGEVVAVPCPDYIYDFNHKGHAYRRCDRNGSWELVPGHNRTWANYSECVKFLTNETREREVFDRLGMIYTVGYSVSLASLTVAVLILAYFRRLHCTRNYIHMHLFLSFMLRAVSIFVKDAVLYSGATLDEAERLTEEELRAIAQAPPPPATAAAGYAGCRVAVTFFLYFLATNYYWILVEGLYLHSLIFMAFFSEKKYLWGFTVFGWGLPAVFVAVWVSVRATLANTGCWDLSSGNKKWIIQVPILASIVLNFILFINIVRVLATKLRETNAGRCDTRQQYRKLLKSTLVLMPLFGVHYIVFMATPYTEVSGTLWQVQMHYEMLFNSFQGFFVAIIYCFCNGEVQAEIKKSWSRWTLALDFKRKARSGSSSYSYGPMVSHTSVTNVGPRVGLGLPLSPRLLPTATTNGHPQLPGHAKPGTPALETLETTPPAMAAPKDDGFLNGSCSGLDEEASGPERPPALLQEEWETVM
# test-details: In vitro cAMP signal activity in HKRK-B7 cells (LLC-PK1 cells overexpressing the human PTH1 receptor)
# Format: cell-based
# run-conditions: HKRK-B7 cells; compound at 1×10^−3 M; cAMP produced as percentage of that produced by hPTH(1-34) at 100 nM
Measured cAMP production activity (%), listed per entry.

compound	target-desc	cAMP production activity (%)
Cc1ccccc1CCS(=O)(=O)N1CCC2(CC1)N=C(C1CCCCC1)NC2=S	UniProt Q03431	47
Cc1cc(C(=O)N2CCCN2)cc(C)c1/C=C/S(=O)(=O)N1CCC2(CC1)N=C(C1CCC(CCC(F)(F)F)CC1)NC2=O (stereo not drawn)	UniProt Q03431	74
O=C1NC(c2ccc(Cl)cc2Cl)=NC12CCN(S(=O)(=O)CCc1cccc3ccccc13)CC2	UniProt Q03431	45
C/C=C/C1=NC2(CCN(S(=O)(=O)CCc3ccc(C(=O)N(C)C)cc3C)CC2)C(=O)N1	UniProt Q03431	32
Cc1cc(N(CC#N)C(N)=O)ccc1CCS(=O)(=O)N1CCC2(CC1)N=C(c1cccc(OC(F)(F)F)c1)NC2=O	UniProt Q03431	22
Cc1cc(C(=O)N(C)C)cc(C)c1/C=C/S(=O)(=O)N1CCC2(CC1)N=C(C1CCC(C)CC1)NC2=O (stereo not drawn)	UniProt Q03431	67
Cc1cc(N(C)C(N)=O)cc(C)c1CCS(=O)(=O)N1CCC2(CC1)N=C(CCCCCCCCCCCC(N)=O)NC2=O	UniProt Q03431	91
O=C1NC(C2CCCCC2)=NC12CCN(S(=O)(=O)CCCc1ccccc1O)CC2	UniProt Q03431	52
Cc1cc(N2C(=O)NC(C)C2=O)cc(C)c1CCS(=O)(=O)N1CCC2(CC1)N=C(C1CCC(C)CC1)NC2=O (stereo not drawn)	UniProt Q03431	83
Cc1cc(C(=O)N2CCC(CO)CC2)cc(C)c1/C=C/S(=O)(=O)N1CCC2(CC1)N=C(c1cccc(OC(F)(F)F)c1)NC2=O	UniProt Q03431	84
CN(C)C(=O)NCCc1ccc(/C=C/S(=O)(=O)N2CCC3(CC2)N=C(C2CCCCC2)NC3=O)cc1	UniProt Q03431	26
Cc1cc(S(=O)(=O)NCCN(C)C)ccc1CCS(=O)(=O)N1CCC2(CC1)N=C(C1CCCCC1)NC2=O	UniProt Q03431	86
Cc1cc(CN(C)C(N)=O)cc(C)c1/C=C/S(=O)(=O)N1CCC2(CC1)N=C(C1CCC(CCC(F)(F)F)CC1)NC2=O (stereo not drawn)	UniProt Q03431	81
Cc1ccccc1C1=NC2(CCN(S(=O)(=O)c3cccc(Cl)c3)CC2)C(=O)N1	UniProt Q03431	16
CCCS(=O)(=O)N1CCCC(C2=NC3(CCN(S(=O)(=O)c4cccc(Cl)c4)CC3)C(=O)N2)C1 (stereo not drawn)	UniProt Q03431	19

* * *

Measured cAMP production activity (%) values are reported for all entries that follow.
# target-desc: human PTH1 receptor (Homo sapiens, UniProt Q03431)
# test-details: In vitro cAMP signal activity in HKRK-B7 cells (LLC-PK1 cells overexpressing the human PTH1 receptor)
# Type: cell-based
# run-conditions: HKRK-B7 cells; compound at 1×10^−3 M; cAMP produced as percentage of that produced by hPTH(1-34) at 100 nM
measurement-kind: cAMP production activity (%)

molecule	unit-spec	reported-value
O=C1NC(C2CCCCC2)=NC12CCN(S(=O)(=O)/C=C/c1ccc3c(ccn3CCOCCO)c1)CC2 [Compound 487]	%	49
Cc1cc(CCS(=O)(=O)N2CCC3(CC2)N=C(C2CCC(C)CC2)NC3=O)cc(C)c1N1C(=O)CNC1=O (stereo not shown) [Compound 749]	%	77
Cc1cc(CN2C(=O)CNC2=O)cc(C)c1/C=C/S(=O)(=O)N1CCC2(CC1)N=C(C1CCC(C)CC1)NC2=O (stereo not shown) [Compound 518]	%	68
Cc1cc(C(=O)N2CCC(O)(CF)CC2)cc(C)c1/C=C/S(=O)(=O)N1CCC2(CC1)N=C(c1ccc(OC(F)(F)F)c(OCCCC(F)(F)F)c1)NC2=O [Compound 1273]	%	81
Cc1cc(N(C)C(N)=O)cc(C)c1/C=C/[S@TB3](=O)(=O)N1CCC2(CC1)N=C(CCCCCCC/C=C/c1ccccc1)NC2=O [Compound 1121]	%	118
CCS(=O)(=O)CCCCCCC1=NC2(CCN(S(=O)(=O)CCc3c(C)cc(N(C)C(N)=O)cc3C)CC2)C(=O)N1 [Compound 1320]	%	10
Cc1cc(N(C)C(N)=O)cc(C)c1CCS(=O)(=O)N1CCC2(CC1)N=C(CCCCCc1ccccc1)NC2=O [Compound 1340]	%	84
